Value source: patent US9193699B2

Known fold induction at 20 µM of a selection of molecules
System: caspase-3 and caspase-7 in SUM149 cells
assayName: Caspase 3/7 activation (Caspase-Glo 3/7) in SUM149 tumor cells
Type: cell-based
appliedConditions: Homo sapiens, R=RLU at 20 μM/RLU at 0 μM, 24 h, read-out: Caspase 3/7 activation R (RLU fold increase from untreated cells)
Answer with the value's number alone.

Example molecules with recorded fold induction at 20 µM:
molecule	fold induction at 20 µM
CC1(C)SCCN(S(=O)(=O)c2ccc(CBr)cc2)[C@H]1C(=O)NO [Compound 5]	5.5
CCCc1ccc(S(=O)(=O)N2CCSC(C)(C)[C@@H]2C(=O)NO)cc1 [Compound 13]	5.4
CC1(C)SCCN(S(=O)(=O)c2ccc(C(F)(F)F)cc2)[C@H]1C(=O)NO [Compound 6]	5.9
Cc1cc(C)c(S(=O)(=O)N2CCSC(C)(C)[C@@H]2C(=O)NO)c(C)c1 [Compound 11]	6.4

For the molecule CC(C)c1ccc(S(=O)(=O)N2CCSC(C)(C)[C@@H]2C(=O)NO)cc1 [Compound 3] , report fold induction at 20 µM. 6.3

Identify measured fold induction at 20 µM associated with CCCCCCCCCCCCc1ccc(S(=O)(=O)N2CCSC(C)(C)C2C(=O)NO)cc1 (stereo not drawn) [Compound 10] 5.5

* * *

Tested on: Thirty eight validated cells lines
assayName: High throughput cell growth analysis on cell line panel
Assay type: cell-based
appliedConditions: panel of cell lines, recommended medium containing 10% FCS; read-out: IC50 of cell growth inhibition on cell line panel
experimentalReadout: IC50

Look up and report IC50, with Thirty eight validated cells lines as system, for Cc1c(C)c(C)c(S(=O)(=O)N2CCSC(C)(C)[C@@H]2C(=O)NO)c(C)c1C [Compound 12] < 1000 nM

* * *

In this section we review reported IC50 values for a set of molecules.
System: Human breast tumor SUM149 cells
assayName: Inhibition of tumor cell growth (alamar blue), SUM149
Type: cell-based
appliedConditions: 120 h, calculated on the basis of cell growth inhibition, day 5, alamar blue, read-out: IC50 for the inhibition of SUM149 tumor cells growth
I only need the number, in nM, no unit after it.

compoundStructure	IC50 (nM)
CCCc1ccc(S(=O)(=O)N2CCSC(C)(C)[C@@H]2C(=O)NO)cc1	2500
CC1(C)SCCN(S(=O)(=O)c2ccc(C(F)(F)F)cc2)[C@H]1C(=O)NO	2500
CC1(C)SCCN(S(=O)(=O)c2ccccc2)[C@H]1C(=O)NO	20000

Find the measured IC50 of `Cc1cc(C)c(C)c(S(=O)(=O)N2CCSC(C)(C)[C@@H]2C(=O)NO)c1C` and report it. 2500

Give the reported value of IC50 for this record: `CC(C)c1ccc(S(=O)(=O)N2CCSC(C)(C)[C@@H]2C(=O)NO)cc1` 2500

Output IC50 of `CC1(C)SCCN(S(=O)(=O)CC(c2ccccc2)c2ccccc2)[C@H]1C(=O)NO` 10000

Provide IC50 value for the following molecule: `Cc1cc(C)cc(S(=O)(=O)N2CCSC(C)(C)[C@@H]2C(=O)NO)c1` 5000

For the molecule `Cc1c(C)c(C)c(S(=O)(=O)N2CCSC(C)(C)[C@@H]2C(=O)NO)c(C)c1C` , report IC50. 2500
